targetOfAssay: T1, Human PD-1 (ACROBiosystems, Inc., Catalog No. PD1-H5221) (human, UniProt Q15116 25-167)
T1 construct: Bought recombinant protein; also called huPD1-His; PD-1-his; not shown: His tag of the bought protein (huPD1-His)
T1 sequence (Q15116 25-167 limits assumed): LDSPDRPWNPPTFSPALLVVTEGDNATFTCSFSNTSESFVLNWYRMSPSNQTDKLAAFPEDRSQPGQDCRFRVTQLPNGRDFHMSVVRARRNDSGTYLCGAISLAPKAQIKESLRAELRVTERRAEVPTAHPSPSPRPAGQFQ
protocolDetails: SPR (Biacore), scFv captured on anti-FLAG, PD-1 as analyte
measuredAttribute: koff (s⁻¹)
Give the value in s⁻¹ but do not write s⁻¹ after it.

Reported koff ( h1E9-5 (VH3-7-Vκ3-11) scFv (scFv, Whole scFv chain with FlagHis tag) scFv: MEVQLVESGGGLVQPGGSLRLSCAASGFTFSTFGMSWVRQAPGKGLEWVATISGGGSDTYYPDSVQGRFTISRDNAKNSLYLQMNSLRAEDTAVYYCARQGYDVYSWFAYWGQGTLVTVSSGGGGSGGGGSGGGGSEIVLTQSPATLSLSPGERATLSCRASESVDNSGISFMSWYQQKPGQAPRLLIYTASNQGSGIPARFSGSGSGTDFTLTISSLEPEDFAVYYCQQSKEVPWTFGQGTKVEIKGSGDYKDDDDKGSGHHHHHH ) = 0.000628
